tested on: HL-60(TB) leukemia; test: NCI tumour cell line growth inhibition, 48 h
log10(TGI) values by entry
The figures below represent log10 of TGI, where TGI is stated in µM.

Observe how each entry below is paired with its result.
compound=Cc1ccccc1NC(=O)c1cc2ccccc2cc1O system_tested="HL-60(TB) leukemia" quantitative_result=0.87
compound=N#CCN(Cc1ccccc1)[C@@H]1CCC[C@]1(O)C#Cc1ccc2c(c1)OCO2 system_tested="HL-60(TB) leukemia" quantitative_result=1.65
compound=CC/C(=C\c1ccc(Cl)c(Cl)c1)[N+](=O)[O-] system_tested="HL-60(TB) leukemia" quantitative_result=0.75
compound="COC(=O)C1=C(O)C(C(=O)OC)[C@@]2(O)[C@@H](C(=O)OC)CC[C@@H]1[C@@H]2C(=O)OC (stereo not given in full)" system_tested="HL-60(TB) leukemia" quantitative_result=1.88
compound=Cc1ccc(-c2c3c(N)c4c(nc3nc3c2c(C)nn3-c2ccccc2)CCC4)cc1 system_tested="HL-60(TB) leukemia" quantitative_result=0.67

For reference, reported log10(TGI) for COc1ccc(/C(C#N)=C(/N)SCc2ccccc2Cl)cc1 stands at 1.80

----------
tested on: SF-539 CNS; experiment: NCI tumour cell line growth inhibition, 48 h
As shown below, each of these compounds has a reported GI50 value.

Reference set (4 entries):
compound="O=C(NN1C(=O)CSC12CCC(c1ccccc1)CC2)c1[nH]c2ccc(F)cc2c1-c1ccccc1 (stereo not given)" result="20900 nM"
compound=CC1=NN(C(=O)c2nn(-c3ccc(Cl)cc3)cc2O)C(=O)C1 result="1900 nM"
compound=CC(=O)n1c(-c2ccc(Cl)c(Cl)c2)cn(-c2ccc(Cl)cc2)c1=O result="14100 nM"
compound=O=[N+]([O-])c1cc2c(ccc3occc32)o1 result="2020 nM"

// moving on: another record for GI50
Short answer on SF-539 CNS for COc1cc(NC(=O)c2cc(O)c(C/C=C(\C)CCC=C(C)C)c(O)c2)cc2c1O[C@]1(C)CC[C@@H](O)C(C)(C)[C@H]1C2 , GI50: 348 nM

----------
tested on: M19-MEL melanoma; assay: NCI tumour cell line growth inhibition, 48 h
Listed here are molecules together with their documented TGI.

molecule="O=C(O)C1CC2CC(=O)C1C2 (stereo unspecified)" system_tested="M19-MEL melanoma" result="> 100 µM"
molecule=Cc1cc(C)nc(NS(=O)(=O)c2ccc(NC(=O)c3cccc4c(N)c5ccccc5nc34)cc2)n1 system_tested="M19-MEL melanoma" result="> 100 µM"
molecule="CCOC(=O)/C=C1\\Oc2ccccc2C1(C)O (stereo unspecified)" system_tested="M19-MEL melanoma" result="> 100 µM"
molecule=NC(=S)N/N=C/c1ccc(OC(=O)COc2ccccc2Cl)cn1 system_tested="M19-MEL melanoma" result="> 92.2 µM"

Kindly note the recorded TGI for O=C1NN=C(c2ccc([N+](=O)[O-])cc2)C1n1nc(-c2ccccc2)c2ccccc2c1=O (stereo unspecified) , which is > 100 µM

Notebook: O=C(O)CN=c1c2ccccc2n(O)c2ccccc12 , TGI read as > 100 µM

Lookup result for CC(=O)O/N=C/c1cc2c(cc1Br)OCO2 ; measured TGI: > 349 µM

Entry under test: O=C(CC(=O)C1CCOC1=O)C(=O)Nc1ccc(Cl)cc1 (stereo unspecified) . Its TGI was > 100 µM

The molecule listed as N#CC(C(=O)CCC(=O)Nc1ccc(Cl)c(Cl)c1)c1ccc(Cl)cc1 (stereo unspecified) has a reported TGI of > 100 µM

The reported TGI of the molecule COc1cc2c3cc1Oc1c(OC)c(OC)cc4c1C(Cc1ccc(cc1)Oc1cc(ccc1O)CC3N(C)CC2)N(C)CC4 (stereo unspecified) was 24.2 µM

O=C1c2ccccc2C(=O)c2c(O)c(NCCNCCO)cc(O)c21 has a reported TGI of 15.2 µM

----------
// values below are reported GI50
test system: NCI-H23 lung; experiment: NCI tumour cell line growth inhibition, 48 h

Entry under test: COc1ccc(C=C2C(=O)NC(=O)NC2=O)cc1OCc1ccccc1 . Its GI50 was 31.7 mg/L

Documented GI50 of CCC(=O)c1c(C(F)(F)F)n([O-])c2ccccc2[n+]1=O : 1.1 µM

Reported GI50 for O=C1c2ccn(CCCCN(CCO)CCO)c2C(=O)c2c1c(O)c1ccccc1c2O was 1.66 µM

So, Nc1ccccc1C#C/C=C\C#Cc1ccccc1F ? Its GI50 was 10.4 µM

Sure, the documented GI50 for CNc1ncc2cc(Oc3ccc(F)cc3F)c(=O)n(C)c2n1 is > 25 µM

Noted for CCN(CC)CCC(=O)O[C@H]1CC[C@H](CC(C)[C@H]2CC(=O)C(C)C=C(C)[C@H](OC(=O)CCN(CC)CC)C(OC)C(=O)[C@@H](C)CC(C)/C=C/C=C/C=C(C)C(OC)CC3CC[C@H](C)[C@](O)(O3)C(=O)C(=O)N3CCCCC3C(=O)O2)CC1OC (stereo partly specified) : its GI50 reads 1.28 µM

Value of measured GI50 for the entry COc1ccc(CN=C(N)N=C(N)N)cc1OC : 522 µM

The reported GI50 of the molecule COc1cc2c(cc1OCCCCCn1c3ccccc3c3ccccc31)N=C[C@@H]1CCCN1C2=O was 2.69 µM

Just so you know, measured GI50 for COc1ccc2c(c1)C=C1CSCC3=Cc4cc(OC)ccc4OC13O2 came out at 1.01 µM

Memo: NCCSC(C[N+](=O)[O-])c1ccccc1Cl (stereo unspecified) , reported GI50: 3.37 µM

# molecule CN(C)N=Nc1nn(C(=O)Nc2ccc(Cc3ccccc3)cc2)c2ccccc12 ; its GI50 = 7.58 µM

----------
Each entry below carries its recorded TGI.
tested on: M14 melanoma; assay: NCI tumour cell line growth inhibition, 48 h

Worked cases, answers included:
compound=O=c1[nH]cnc2c1ncn2CCCCO value_kind=TGI result="> 100 µM"
compound="Cn1nc(C(=O)N2CC(CCl)c3c2cc([N+](=O)[O-])c2ccccc32)cc1NC(=O)Nc1cc(C(=O)N2CC(CCl)c3c2cc([N+](=O)[O-])c2ccccc32)nn1C (stereo not drawn)" value_kind=TGI result="> 100 µM"
compound=Cn1c2ccccc2c2[nH]c3ccccc3c(=O)c21 value_kind=TGI result="> 100 µM"
compound="C#CC(O)Cc1ccc(OC)c2occc12 (stereo not drawn)" value_kind=TGI result="> 100 µM"
compound=c1cc(C[S+]2CCCC2)oc1C[S+]1CCCC1 value_kind=TGI result="> 100 µM"
compound=CCOC(=O)Oc1ccc2c(c1)c(=O)c1c(NCCCN(CC)CC)ccc3nnn2c31 value_kind=TGI result="25.4 µM"

Below: the item to evaluate.
Per the records, this compound ( COC1OC(C(C)O)C2OC(C)(C)OC12 (stereo not drawn) ) has TGI equal to > 100 µM

----------
Each item that follows carries a reported TGI.
tested on: KM12 colon; assay: NCI tumour cell line growth inhibition, 48 h

Note to self: TGI recorded for O=C(NC1C=Nc2ccccc2NC1=O)c1ccccc1Cl (stereo not drawn) was > 100 µM

For CC/C=C/C(/C=C/C[C@]1(CC)C[C@H](CC)[C@H](CC(=O)O)OO1)CC (stereo partly drawn) the molecule record lists TGI as 3.68 µM

Record summary for Cc1cn2c(/C=C3/C(=O)Nc4ccccc43)c(C)nc2s1 : reported TGI = 29.7 µM

TGI reading for O=C(CC(=O)C1CCOC1=O)C(=O)Nc1ccc(Cl)cc1 (stereo not drawn) : > 100 µM

----------
Listing of recorded TGI by entry.
test system: MALME-3M melanoma; assay: NCI tumour cell line growth inhibition, 48 h

Entry Cc1ccc(N2C(=O)C(=O)N(/N=C3\C(=O)Nc4ccccc43)C2=S)cc1 ; TGI = > 100 µM

TGI measured on O=c1cc(-c2ccc(O)cc2)oc2cc(O)cc(O)c12 = 88.3 µM

Memo: COC1C(OC(N)=O)C(O)C(Oc2ccc3c(O)c(NC(=O)c4ccc(O)c(CC=C(C)C)c4)c(=O)oc3c2C)OC1(C)C (stereo not given) , reported TGI: > 100 µM

// recorded TGI for Cc1nc2nn(C)cc2c(=O)n1/N=C/c1ccccc1 : > 100 µM

The compound COc1ccc(N2C(=O)C3c4[nH]c5ccc(OCc6ccccc6)cc5c4C4CCC(C(C)C)CC4C3C2=O)cc1 (stereo not given) showed TGI equal to > 100 µM

----------
Recorded TGI values for a group of compounds are listed next.
system: NCI/ADR-RES ovarian; assay: NCI tumour cell line growth inhibition, 48 h

Recorded TGI, per entry:
compound=Cc1ccc(Nc2cn(COCc3ccccc3)c(=O)[nH]c2=O)cc1 result="> 100 µM"
compound=Cc1cc(-c2ccc(C(=O)C(c3ccccc3)(c3ccccc3)c3ccccc3)[nH]2)on1 result="36.8 µM"

Now, please, on to the next compound.
Reported NCI/ADR-RES ovarian TGI for item CC1=C(C(=O)NC(C)(C)C)CC(C(=O)NC(C)(C)C)C(C)N1 (stereo not drawn) was > 100 µM
